target: human SCD1 (Homo sapiens (Human), UniProt O00767); experiment: Yeast growth assay, strain expressing human SCD1 as the sole desaturase (reduced growth as surrogate for SCD inhibition); assay type: cell-based; conditions: yeast with OLE1 deleted expressing human SCD1 from a plasmid; growth read as OD600 after 40 h at 30° C.; top drug concentration 33.3 μM
Sequence (O00767 whole entry): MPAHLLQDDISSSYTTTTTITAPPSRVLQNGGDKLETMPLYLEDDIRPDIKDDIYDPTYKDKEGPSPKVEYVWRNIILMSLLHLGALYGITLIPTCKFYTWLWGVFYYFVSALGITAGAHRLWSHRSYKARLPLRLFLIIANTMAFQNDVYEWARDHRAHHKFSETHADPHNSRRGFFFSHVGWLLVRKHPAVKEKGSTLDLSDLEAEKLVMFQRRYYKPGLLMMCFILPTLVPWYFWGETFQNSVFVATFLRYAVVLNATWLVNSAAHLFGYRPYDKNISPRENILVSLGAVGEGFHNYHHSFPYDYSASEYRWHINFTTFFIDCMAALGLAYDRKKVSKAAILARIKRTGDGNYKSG
Each entry below carries its recorded IC50.

Worked set:
INSERT INTO measurements (molecule, targetortestsystem, testvalue) VALUES
  ('CC(C)(C)OC(=O)n1cc(NC(=O)c2cc(-c3ccco3)on2)cn1', 'human SCD1 (Homo sapiens (Human), UniProt O00767)', '> 45 µM'),
  ('CC(C)(c1ccccc1)n1cc(NC(=O)c2cc(-c3ccccc3)on2)cn1', 'human SCD1 (Homo sapiens (Human), UniProt O00767)', '> 45 µM'),
  ('C=C(C)c1cc(C(=O)Nc2cnn(Cc3cccc(F)c3)c2)no1', 'human SCD1 (Homo sapiens (Human), UniProt O00767)', '0.02 µM'),
  ('O=C(Nc1cnn(Cc2ccccc2)c1)c1cc(-c2cnco2)on1', 'human SCD1 (Homo sapiens (Human), UniProt O00767)', '> 45 µM'),
  ('O=C(Nc1noc(Cc2ccccc2)n1)c1cc(-c2ccccc2)on1', 'human SCD1 (Homo sapiens (Human), UniProt O00767)', '> 45 µM'),
  ('CS(=O)(=O)CC(c1ccccc1)n1cc(NC(=O)c2cc(-c3ccccc3)on2)cn1 (stereo not drawn)', 'human SCD1 (Homo sapiens (Human), UniProt O00767)', '> 45 µM'),
  ('O=C(Nc1cnn(Cc2cccc(F)c2)c1)c1cc(Cl)on1', 'human SCD1 (Homo sapiens (Human), UniProt O00767)', '3.9 µM'),
  ('O=C(c1cc(-c2ccc3ncnn3c2)on1)N1CCC[C@H]1c1ccccc1', 'human SCD1 (Homo sapiens (Human), UniProt O00767)', '32.4 µM');

Now let's try a different one.
IN: State the recorded IC50 for this entry: O=C(Nc1cnn(Cc2ccccc2Cl)c1)c1cc(-c2cccc3c2cnn3C2COC2)on1
OUT: > 45 µM
